Emax values for the compounds below.
- system.under.test: 5-HT1A receptor (Homo sapiens, UniProt P08908)
- protocol.details: cAMP accumulation assay, 5-HT1A function
- Assay type: cell-based
- particulars: in brackets after EC50 or IC50; read-out: 5-HT1A Function cAMP (Emax)
The response must be a number in % with no trailing unit.

Known results for compounds:
>>> recorded_measurement("NC(=O)c1ccc(F)c2c1CC(N(CCC(=O)c1c[nH]c3ccc(F)cc13)C1CCC1)CO2 (centres unmarked)")
0
>>> recorded_measurement("COc1cccc2c(CCCN(CC3CC3)C3COc4c(F)ccc(C(N)=O)c4C3)coc12 (centres unmarked)")
0
>>> recorded_measurement("NC(=O)c1ccc(F)c2c1CC(N(CCCc1c[nH]c3ccc(F)cc13)C1CCC1)CO2 (centres unmarked) [Compound 4]")
0
>>> recorded_measurement("COc1cccc2c(CCN(CC3CC3)C3COc4c(F)ccc(C(N)=O)c4C3)coc12 (centres unmarked)")
0

input: Lab note: need Emax with 5-HT1A receptor (Homo sapiens, UniProt P08908) for entry CCCN(CCc1coc2c(OC)cccc12)C1COc2c(F)ccc(C(N)=O)c2C1 (centres unmarked) , please look it up.
output: 0

input: Then this compound: COC(=O)c1cccc2c1CC(NCCCc1c[nH]c3c(F)cc(F)cc13)CO2 (centres unmarked)
output: 98

input: Then this compound: CCN(CCCc1c[nH]c2c(OC)cccc12)C1COc2c(F)ccc(C(N)=O)c2C1 (centres unmarked)
output: 68.5

input: Then this compound: CCCN(CCCc1c[nH]c2ccc(F)cc12)C1COc2cccc(C(N)=O)c2C1 (centres unmarked)
output: 100

input: Then this compound: COC(=O)c1ccc(F)c2c1C[C@H](NCCCCc1c[nH]c3ccc(F)cc13)CO2 [Compound 57a]
output: 81

input: Then this compound: CCCN(CCCCc1coc2c(OC)cccc12)C1COc2c(F)ccc(C(N)=O)c2C1 (centres unmarked)
output: 0

---

- system.under.test: cloned human 5-HT1A receptors (Homo sapiens)
- Construct: expressed in transfected cells
- Sequence (P08908 whole entry): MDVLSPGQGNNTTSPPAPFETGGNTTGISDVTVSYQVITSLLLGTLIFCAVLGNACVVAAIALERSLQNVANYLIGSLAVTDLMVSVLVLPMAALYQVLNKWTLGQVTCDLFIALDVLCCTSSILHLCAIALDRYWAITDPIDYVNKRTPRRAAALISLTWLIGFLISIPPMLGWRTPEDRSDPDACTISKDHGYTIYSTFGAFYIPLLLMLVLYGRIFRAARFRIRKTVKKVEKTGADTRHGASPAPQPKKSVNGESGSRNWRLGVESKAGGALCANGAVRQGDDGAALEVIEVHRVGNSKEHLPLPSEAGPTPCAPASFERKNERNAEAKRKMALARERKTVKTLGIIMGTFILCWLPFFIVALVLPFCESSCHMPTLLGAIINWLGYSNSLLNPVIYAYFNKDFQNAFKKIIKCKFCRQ
- protocol.details: 35S-GTPγS binding assay, 5-HT1A function
- Assay type: biochemical
- particulars: maximum stimulatory effect, in brackets after EC50; read-out: 5-HT1A Function GTPγS (Emax)
Please assign f whenever Emax is at or above 50%, and t whenever it is below.

Previously resolved entries follow.
>>> classification("NC(=O)c1ccc(F)c2c1OCC(N(CCCc1c[nH]c3ccc(F)cc13)CC1CC1)C2 (stereo not shown)")
"f"
>>> classification("CCCN(CCCc1c[nH]c2ccc(F)cc12)C1COc2c(C(N)=O)ccc(F)c2C1 (stereo not shown)")
"f"
>>> classification("CCCN(CCCc1c[nH]c2c(F)cc(F)cc12)C1COc2c(C(N)=O)ccc(F)c2C1 (stereo not shown)")
"f"
>>> classification("CCCN(C1COc2cccc(OC)c2C1)[C@H]1CC[C@H](c2c[nH]c3ccc(F)cc32)CC1 (relative stereo)")
"t"
>>> classification("CCCN(CCCCc1c[nH]c2ccc(F)cc12)C1COc2cccc(OC)c2C1 (stereo not shown)")
"f"

input: In plain terms, does O=C(Nc1ccccc1)c1ccc(F)c2c1CC(N(CCCc1c[nH]c3ccc(F)cc13)C1CCC1)CO2 (stereo not shown) come in under 50% for Emax?
output: t

input: Then this compound: CCCN(CCCc1c[nH]c2ccc(F)cc12)C1COc2c(F)ccc(C(=O)NC)c2C1 (stereo not shown)
output: t

input: Then this compound: NC(=O)c1ccc(F)c2c1CC(N(CCCc1c[nH]c3ccc(F)cc13)CC1CC1)CO2 (stereo not shown) [Compound 5]
output: t

input: Then this compound: CCN(CCCCc1coc2ccccc12)C1COc2cccc(OC)c2C1 (stereo not shown)
output: f

input: Then this compound: CCCNC(=O)c1cccc2c1CC(N(CCCc1c[nH]c3c(F)cc(F)cc13)C1CCC1)CO2 (stereo not shown)
output: f

---

- system.under.test: serotonin transporter (Rattus norvegicus)
- Construct: displace ^3H-paroxetine from male rat cortical membranes; from tissue; host or cells: male rat cortical membranes
- Sequence (P31652 whole entry): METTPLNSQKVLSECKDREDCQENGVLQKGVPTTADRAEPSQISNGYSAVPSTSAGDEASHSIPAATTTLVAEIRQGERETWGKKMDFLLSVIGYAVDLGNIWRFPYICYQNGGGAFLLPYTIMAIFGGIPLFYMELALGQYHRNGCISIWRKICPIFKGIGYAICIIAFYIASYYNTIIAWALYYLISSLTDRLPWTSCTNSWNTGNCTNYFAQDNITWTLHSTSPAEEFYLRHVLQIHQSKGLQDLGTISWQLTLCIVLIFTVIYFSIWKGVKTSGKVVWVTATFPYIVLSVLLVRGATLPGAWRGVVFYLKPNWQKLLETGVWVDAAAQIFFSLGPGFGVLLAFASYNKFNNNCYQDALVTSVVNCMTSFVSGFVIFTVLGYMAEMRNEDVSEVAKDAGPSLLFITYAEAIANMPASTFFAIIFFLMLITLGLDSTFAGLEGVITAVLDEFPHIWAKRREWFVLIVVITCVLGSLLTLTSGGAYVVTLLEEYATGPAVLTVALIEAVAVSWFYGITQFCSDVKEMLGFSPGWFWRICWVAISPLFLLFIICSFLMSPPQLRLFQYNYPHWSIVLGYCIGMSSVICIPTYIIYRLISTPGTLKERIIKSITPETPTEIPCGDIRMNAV
- protocol.details: 5-HT transporter affinity: displacement of 3H-paroxetine from male rat cortical membranes
- Assay type: binding
- particulars: displacement of 3H-paroxetine; male rat cortical membranes; read-out: 5-HT Transporter Affinity Ki
measure: Ki (nM)
The response must be a number in nM with no trailing unit.

Known results for molecules:
>>> recorded_measurement("NC(=O)c1ccc(F)c2c1OCC(NCCCc1c[nH]c3c(F)cc(F)cc13)C2 (centres unmarked)")
54.5
>>> recorded_measurement("CCCN(CCCc1c[nH]c2ccc(F)cc12)C1CCc2c(F)ccc(OC)c2C1 (single isomer, unassigned; (+)) [Compound 51a]")
1.15

input: What value of measured Ki is listed for NC(=O)c1ccc(F)c2c1CC(N(CCCCn1ccc3cc(F)ccc31)C1CCC1)CO2 (centres unmarked) ?
output: 241

input: Then this molecule: NC(=O)c1ccc(F)c2c1C[C@@H](N(CC1CC1)CC1CCc3[nH]c4ccc(F)cc4c3C1)CO2 (single isomer, unassigned; (-)) [Compound 178a]
output: 347

input: Then this molecule: CCCN(CC1CCc2[nH]c3ccc(F)cc3c2C1)[C@H]1COc2c(F)ccc(C(N)=O)c2C1 (single isomer, unassigned; (-)) [Compound 177a]
output: 5240

---

Ki values for the compounds below.
- system.under.test: serotonin transporter (Rattus norvegicus)
- Construct: displace ^3H-paroxetine from male rat cortical membranes; from tissue; host or cells: male rat cortical membranes
- protocol.details: 5-HT transporter affinity: displacement of 3H-paroxetine from male rat cortical membranes
- Type: binding
- particulars: displacement of 3H-paroxetine; male rat cortical membranes; read-out: 5-HT Transporter Affinity Ki
The response must be a number in µM with no trailing unit.

Known results for compounds:
>>> recorded_measurement("COc1ccc2[nH]cc(CCCN(CC3CC3)C3COc4c(F)ccc(C(N)=O)c4C3)c2c1 (stereo not shown)")
0.882
>>> recorded_measurement("NC(=O)c1ccc(F)c2c1C[C@H](N(CCCCc1c[nH]c3ccc(F)cc13)C1CCC1)CO2 [Compound 83b]")
0.0169
>>> recorded_measurement("N#Cc1ccc2[nH]cc(CCCN(CC3CC3)[C@H]3COc4c(F)ccc(C(N)=O)c4C3)c2c1 [Compound 98b]")
0.0055

// next item, Ki requested
input: What value of measured Ki is listed for CCN(CCCCn1ccc2cccc(F)c21)C1COc2c(F)ccc(C(N)=O)c2C1 (stereo not shown) ?
output: 0.0271

---

melting point values for the molecules below.
Structures can show the parent of a compound that is named as a salt.

Known results for molecules:
>>> recorded_measurement("CCCCN(CCCc1c[nH]c2ccc(F)cc12)C1COc2c(F)ccc(C(N)=O)c2C1 (stereo not shown) (as salt: hydrochloride) [Compound 72]")
"126 °C (dec.)"
>>> recorded_measurement("CCN(CCCc1c[nH]c2c(Cl)cccc12)C1COc2c(F)ccc(C(N)=O)c2C1 (stereo not shown) (as salt: hydrochloride) [Compound 110]")
"146 to 152 °C (dec.)"
>>> recorded_measurement("CCCNC(=O)c1ccc(F)c2c1CC(N(CCCc1c[nH]c3ccc(F)cc13)C1CCC1)CO2 (stereo not shown) (as salt: hydrochloride) [Compound 61]")
"67 °C (dec.)"
>>> recorded_measurement("NC(=O)c1ccc(F)c2c1CC(NCCCc1c[nH]c3ccc(Cl)cc13)CO2 (stereo not shown) (as salt: hydrochloride) [Compound 114]")
"218 to 221 °C"
>>> recorded_measurement("CCCN(CCCc1c[nH]c2ccccc12)C1CCc2cccc(OC)c2C1 (stereo not shown) (as salt: hydrochloride) [Compound 50]")
"108 °C (dec.)"
>>> recorded_measurement("NC(=O)c1ccc(F)c2c1CC(NCCCn1ccc3ccccc31)CO2 (stereo not shown) (as salt: hydrochloride) [Compound 184]")
"155 to 156 °C"

// next item, melting point requested
input: What value of measured melting point is listed for CCCN(CCCc1c[nH]c2ccc(F)cc12)C1CCc2c(F)ccc(OC)c2C1 (stereo not shown) (as salt: hydrochloride) [Compound 51] ?
output: 107 °C (dec.)

---

melting point values for the compounds below.
Counter-ions that a name gives are not always drawn.

Known results for compounds:
>>> recorded_measurement("COc1cccc2c1CC(N(CCCc1cn(C)c3ccc(F)cc13)CC1CC1)CO2 (stereo not shown) (as salt: hydrochloride)")
"86 °C (dec.)"
>>> recorded_measurement("C[C@@H](CCN(C1CCC1)[C@H]1COc2c(F)ccc(C(N)=O)c2C1)c1c[nH]c2ccc(F)cc12 (as salt: hydrochloride) [Compound 153a]")
"160 to 168 °C (dec.)"

input: What value of measured melting point is listed for CCCN(CCCCc1c[nH]c2ccc(F)cc12)C1COc2c(C(N)=O)ccc(F)c2C1 (stereo not shown) (as salt: hydrochloride) ?
output: 116 °C (dec.)

input: Then this compound: CCCN(CCCc1c[nH]c2ccc(OC)cc12)C1COc2c(F)ccc(C(N)=O)c2C1 (stereo not shown) (as salt: hydrochloride)
output: 145 to 152 °C (dec.)

This collection of values is drawn from patent US20050032873A1.
